- protocol-text: Selectivity ratio of IC50 for trypsin to IC50 for thrombin
Recorded Ratio IC50 by entry
measurement-kind: Ratio IC50

1) Cc1ccc(C)c(S(=O)(=O)Nn2ccc(C)c(CC(=O)NCc3ccc(C(=N)N)cc3)c2=O)c1 ... 12
2) Cc1ccccc1CCNn1ccc(C)c(CC(=O)NCc2ccc(C(=N)N)cc2)c1=O ... 42
3) COc1cccc(S(=O)(=O)Nn2ccc(C)c(CC(=O)NCc3ccc(C(=N)N)cc3)c2=O)c1 ... 15

---

- protocol-text: Inhibition of trypsin
pIC50: −log10 of the molar value.
The threshold is inclusive: pIC50 of exactly 5 counts as yes; values below receive no.

1) Cc1ccn(/N=C/Cc2cccc(C(F)(F)F)c2)c(=O)c1CC(=O)NCc1ccc(N)nc1 ... no
2) Cc1ccnc(CNC(=O)Cc2c(C)ccn(NS(=O)(=O)c3c(C)cccc3Cl)c2=O)c1F ... no
3) Cc1ccn(NS(=O)(=O)c2cccc3ccccc23)c(=O)c1CC(=O)NCc1ccc(C(=N)N)cc1 ... no
4) Cc1ccn(NS(=O)(=O)c2ccccc2)c(=O)c1CC(=O)NCc1ccc(C(=N)N)cc1 ... yes
5) Cc1ccccc1CCNn1ccc(C)c(CC(=O)NCc2ccc(C(=N)N)cc2)c1=O ... yes
6) Cc1ccc(C)c(CCNn2ccc(C)c(CC(=O)NCc3ccc(C(=N)N)cc3)c2=O)c1 ... yes
7) COc1cccc(S(=O)(=O)Nn2ccc(C)c(CC(=O)NCc3ccc(C(=N)N)cc3)c2=O)c1 ... no
8) COc1ccc(S(=O)(=O)Nn2ccc(C)c(CC(=O)NCc3ccc(C(=N)N)cc3)c2=O)cc1 ... yes
9) Cc1ccc(C)c(S(=O)(=O)Nn2ccc(C)c(CC(=O)NCc3ccc(C(=N)N)cc3)c2=O)c1 ... yes
10) COc1cc(Cl)ccc1S(=O)(=O)Nn1ccc(C)c(CC(=O)NCc2ccc(C(=N)N)cc2)c1=O ... yes
11) COc1cc(C)ccc1S(=O)(=O)Nn1ccc(C)c(CC(=O)NCc2ccc(C(=N)N)cc2)c1=O ... yes
12) Cc1ccn(NCCc2ccccc2)c(=O)c1CC(=O)NCc1ccc(C(=N)N)cc1 ... yes
13) Cc1ccn(NS(=O)(=O)Cc2ccccc2)c(=O)c1CC(=O)NCc1ccc(C(=N)N)cc1 ... no

---

- protocol-text: Selectivity ratio of IC50 for trypsin to IC50 for thrombin
measurement-kind: Ratio IC50

1) Cc1ccn(NS(=O)(=O)c2ccc(Cl)c(Cl)c2)c(=O)c1CC(=O)NCc1ccc(C(=N)N)cc1 ... 12
2) Cc1ccn(NS(=O)(=O)Cc2ccccc2)c(=O)c1CC(=O)NCc1ccc(C(=N)N)cc1 ... 7.9
3) COc1ccc(S(=O)(=O)Nn2ccc(C)c(CC(=O)NCc3ccc(C(=N)N)cc3)c2=O)cc1 ... 1.8
4) Cc1ccn(NS(=O)(=O)c2cccc3ccccc23)c(=O)c1CC(=O)NCc1ccc(C(=N)N)cc1 ... 14
5) COc1cc(Cl)ccc1S(=O)(=O)Nn1ccc(C)c(CC(=O)NCc2ccc(C(=N)N)cc2)c1=O ... 13
6) Cc1ccn(NS(=O)(=O)c2ccccc2)c(=O)c1CC(=O)NCc1ccc(C(=N)N)cc1 ... 2.3
7) Cc1ccn(NCCc2ccccc2)c(=O)c1CC(=O)NCc1ccc(C(=N)N)cc1 ... 16
8) Cc1ccc(C)c(CCNn2ccc(C)c(CC(=O)NCc3ccc(C(=N)N)cc3)c2=O)c1 ... 23
9) COc1cc(C)ccc1S(=O)(=O)Nn1ccc(C)c(CC(=O)NCc2ccc(C(=N)N)cc2)c1=O ... 1.7
